TGT: T1, human HER2/ErbB2 on cells (human, UniProt P04626 23-1255)
T1 construct: whole, on cells; also called hHER2/ErbB2; wild type HER2/ErbB
EXPERIMENT: flow cytometry on CHO cells expressing human HER2
Procedure: CHO cells (Chinese Hamster Ovary cells) stably transfected with hHER2 expression vector and selected in G418 containing medium. G418 resistant clones were pooled and split 24 hours prior to the setup of the assay to obtain 70% confluent monolayer. […] Cells were lifted with cell dissociation buffer (Gibco catalog #13151-014), counted, washed and adjusted to 1×10⁶ cells/ml and one ml of cells were then added to each tube (12×75 mm tube Falcon catalog #352054). […]
MEASURED ENDPOINT: pEC50
Schema: pEC50 number; meaning minus log10 of the concentration expressed in molar units.

Solved cases (3 shown):
GET /values?readout=pEC50&item= BIIB69A09 Fab (Fab, V domains shown, Soluble human Fab from a naive phagemid Fab library) VH: EVQLLESGGGLVQPGGSLRLSCAASGFTFSRYNMWWVRQAPGKGLEWVSVIRSSGGYTGYADSVKGRFTISRDNSKNTLYLQMNSLRAEDTAVYYCARWNSGYSYWDYYYGMDVWGQGTTVTVSS VL: DIQMTQSPSSLSASVGDRVTITCRASQSISSYLNWYQQKPGKAPKLLIYAASSLQSGVPSRFSGSGSGTDFTLTISSLQPEDFATYYCQQFNTYPITFGPGTKVDIK
8.70

Do the same for BIIB66C01 Fab (Fab, V domains shown, Soluble human Fab from a naive phagemid Fab library) VH: EVQLLESGGGLVQPGGSLRLSCAASGFTFSWYSMSWVRQAPGKGLEWVSSISSSGGPTHYADSVKGRFTISRDNSKNTLYLQMNSLRAEDTAVYYCARDSSYSGTSWGQGTLVTVSS VL: QYELTQPPSVSGTPGQRVTISCSGSSSNIGSEYVYWFQQLPGTAPRLLIYRNDQRPSGVPDRFSGSKSGTSASLAISGLRSEDETDYYCTTWDDSLSGPVFGGGTKLTVL please
7.92

What would you report for BIIB67F11 Fab (Fab, V domains shown, Soluble human Fab from a naive phagemid Fab library) VH: EVQLLESGGGLVQPGGSLRLSCAASGFTFSNYYMMWVRQAPGKGLEWVSVIGSSGGMTNYADSVKGRFTISRDNSKNTLYLQMNSLRAEDTAVYYCARGYPTGYYDSSGWVYSYYGIDVWGQGTTVTVSS VL: DIQMTQSPSSLSASIGDRVTITCQASQDTDNRLHWYQQKSGRAPKLLIYDAVNLKRGVPSRFRGSGSGTNFILTITNLQPEDMATYFCQHSDGLSLAFGGGTKLEIK ?
8.15

New cases:
Which pEC50 reading was recorded for the binder BIIB65B03 Fab (Fab, V domains shown, Soluble human Fab from a naive phagemid Fab library) VH: EVQLLESGGGLVQPGGSLRLSCAASGFTFSWYRMNWVRQAPGKGLEWVSSIYSSGGPTNYADSVKGRFTISRDNSQNTLYLQMNSLRAEDTAVYYCTREKPDYYDSSGYLDYWGQGTLVTVSS VL: DIQMTQSPGTLSLSPGERSTLSCRASQSVSSSYLAWYQQKPGQAPRLLIYGASSRATGIPDRFSGSGSGTDFTLTISRLEPEDFGVYYCHQYGRPPVFGPGTKVDIK ?
7.82
